Data credit: ChEMBL document CHEMBL5442168

Measured Remaining (without cofactor) accompanies every entry in the list below.
Assay: Mouse liver microsomal stability of compound in microsomal protein, PBS buffer pH 7.4, NADPH, glucose-6-phosphate and glucose-6-phosphate dehydrogenase media. Aliquotes were taken at 5 time points and after stopping the reaction, supernatants were analyzed using HPLC coupled with a tandem mass spectrometer. The elimination constant, half-life, and intrinsic clearance are determined as results using linear regression analysis. The assay has been performed by Enamine biological services, Bienta Ltd.The protocol is publicly available: dx.doi.org/10.17504/protocols.io.5qpvokdb9l4o/v1; note: time not given here
Format: ADME, microsomes, Microsome
Settings: microsomes

molecule | Remaining (without cofactor), %
CNC(=O)c1c[nH]c2ncnc(N[C@H](c3ccc4c(c3)S(=O)(=O)CCC4)C(C)C)c12 | 99
CC(C)[C@H](CO)Nc1ncnc2[nH]ccc12 | 93
CC(C)[C@@H](Nc1ncnc2[nH]c(-c3ccc4nnn(C)c4c3)cc12)c1ccc2c(c1)S(=O)(=O)CCC2 | 93
CC(C)[C@H](Nc1ncnc2[nH]c(-c3cnn(CC(N)=O)c3)cc12)c1ccc2c(n1)OCCO2 | 110
C[C@H](C(=O)O)[C@@H](NC(=O)c1ncnc2[nH]ccc12)c1ccc(Br)cc1 | 100.245
